- assay-comment: Plasma pharmacokinetics
- Assay type: in vivo, human
- experimental-setup: human, plasma, po, 160 mg
property-measured: half-life (h)
# number only, unit h dropped from output

q: Look up half-life: O=C(CCCCCCNC(=O)c1cnc(N(c2ccccc2)c2ccccc2)nc1)NO [ricolinostat]
a: 3.26

* * *

- assay-comment: Plasma pharmacokinetics
- Assay type: in vivo, human
- experimental-setup: human, plasma, mean Cmax of bortezomib, day 11 dose, cohort 4′ ([…]^2 with ricolinostat 160 mg QD), n=11
property-measured: Cmax (ng/mL)
# number only, unit ng/mL dropped from output

q: Look up Cmax: CC(C)C[C@H](NC(=O)[C@H](Cc1ccccc1)NC(=O)c1cnccn1)B(O)O [bortezomib, reference compound]
a: 40
